Biological target: Translocator protein (Rattus norvegicus)
Sequence (P16257 whole entry, looked up): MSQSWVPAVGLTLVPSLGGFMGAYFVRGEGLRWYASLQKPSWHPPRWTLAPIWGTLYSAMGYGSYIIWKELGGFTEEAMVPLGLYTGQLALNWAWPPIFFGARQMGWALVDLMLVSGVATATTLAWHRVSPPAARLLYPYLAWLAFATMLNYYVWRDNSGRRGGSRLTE
REPORTED_ENDPOINT: Ki (nM)
Expressed in nM, but write only the number.

Incoming: Which Ki is reported with Translocator protein (Rattus norvegicus) for this entry: `COc1ccccc1CN(C(=O)C[18F])c1cnccc1Oc1ccccc1` ?
Outgoing: 0.18

###

Assay: Lipophilicity, logD of the compound at pH 7.4
Type: physicochemical
Settings: buffer
REPORTED_ENDPOINT: logD
Reply with the value as a number alone.

Incoming: Give the measured logD of `CC(=O)N(Cc1ccccc1O[11CH3])c1cnccc1Oc1ccccc1` .
Outgoing: 3.01

###

Assay: physchem
Details: buffer, pH 7.4
Description: Lipophilicity, logD of compound at pH 7.4 by HPLC analysis
REPORTED_ENDPOINT: logD

| CHEMICAL_STRUCTURE | EXPERIMENTAL_RESULT |
| --- | --- |
| CCCN(CCC)C(=O)Cc1c(-c2ccc(OCC[18F])cc2)nc2c(Cl)cc(Cl)cn12 | 3 |

Incoming: Give the measured logD of `COc1ccc(OCC[18F])c(CN(C(C)=O)c2cc(F)ccc2Oc2ccccc2)c1` .
Outgoing: 3.81

Incoming: Give the measured logD of `CC[C@@H](C)N([11CH3])C(=O)c1cc2ccccc2c(-c2ccccc2Cl)n1` .
Outgoing: 3.97

###

Target: Albumin (Macaca fascicularis, UniProt A2V9Z4)
Sequence (A2V9Z4 whole entry): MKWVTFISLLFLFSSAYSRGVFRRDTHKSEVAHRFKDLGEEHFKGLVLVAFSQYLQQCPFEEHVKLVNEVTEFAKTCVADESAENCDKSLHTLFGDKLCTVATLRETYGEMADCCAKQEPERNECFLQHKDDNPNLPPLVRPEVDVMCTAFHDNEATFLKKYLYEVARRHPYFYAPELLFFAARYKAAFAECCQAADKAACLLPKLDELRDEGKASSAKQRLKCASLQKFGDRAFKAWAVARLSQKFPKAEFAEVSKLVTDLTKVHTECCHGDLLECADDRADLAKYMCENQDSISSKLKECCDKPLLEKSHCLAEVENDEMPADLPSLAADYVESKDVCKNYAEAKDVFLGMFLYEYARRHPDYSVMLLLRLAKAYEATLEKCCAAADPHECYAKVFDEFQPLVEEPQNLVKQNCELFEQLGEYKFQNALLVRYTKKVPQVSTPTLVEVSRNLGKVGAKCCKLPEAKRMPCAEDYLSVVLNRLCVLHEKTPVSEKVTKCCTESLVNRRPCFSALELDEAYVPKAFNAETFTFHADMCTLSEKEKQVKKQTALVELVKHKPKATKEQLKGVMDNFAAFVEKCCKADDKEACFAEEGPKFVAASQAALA
REPORTED_ENDPOINT: Ki

Incoming: Which Ki is reported with Albumin (Macaca fascicularis, UniProt A2V9Z4) for this entry: `COc1ccccc1CN(C(=O)C[18F])c1cnccc1Oc1ccccc1` ?
Outgoing: 0.3 nM

Source listed as ChEMBL document CHEMBL5344430.
